All figures here come from ChEMBL document CHEMBL5385846.

- Method: Metabolic stability in human liver microsomes assessed as microsomal intrinsic clearance at 1 micromol/L measured upto 60 mins in presence of NADPH by LC-MS/MS analysis
- Type: ADME, Microsome
- Particulars: dose 1 µmol/L, read-out: CLH
Readout Type: microsomal CLint at 1 µM (µL/min/mg)

# Sample Smiles, Readout Type, Reported
rows = [
    ("COc1cc2c(cc1OC)-c1cc3ccc(OC)c(OCc4cccc(C)c4)c3c[n+]1CC2.[Br-]", "microsomal CLint at 1 µM", 26),
]

---

- Target: UniProt:P02452
- Method: Inhibition of COL1A1 (unknown origin) expressed in human LX2 cells at 20 micromol/L incubated for 48 hrs by Bright-Glo luciferase assay relative to control
- Assay type: cell-based
- Particulars: dose 20.0 µmol/L
Measured inhibition accompanies every entry in the list below.

# Sample Smiles, inhibition / %
measured = [
    ("COc1cc2c(cc1OC)-c1cc3ccc(OC)c(NC(=O)c4cc(C)nn4C)c3c[n+]1CC2", 0),
    ("COc1cc2c(cc1OC)-c1cc3ccc(OC)c(OCc4ccccc4C#N)c3c[n+]1CC2", 23),
    ("COc1cc2c(cc1OC)-c1c(Cc3ccc(Br)cc3)c3ccc(OC)c(OC)c3c[n+]1CC2", 85.7),
]

---

- Method: Metabolic stability in human liver microsomes assessed as compound remaining at 1 micromol/L measured upto 60 mins in presence of NADPH by LC-MS/MS analysis
- Type: ADME, Microsome
- Particulars: dose 1 µmol/L, read-out: Stability
Readout Type: remaining at 1 h, 1 µM (%)

# Sample Smiles, Reported
data = [
    ("COc1cc2c(cc1OC)-c1cc3ccc(OC)c(OCc4cccc(C)c4)c3c[n+]1CC2.[Br-]", 44.1),
]

---

- Target: Collagen alpha-1(I) chain (Homo sapiens) (UniProt P02452)
- Sequence (P02452 whole entry): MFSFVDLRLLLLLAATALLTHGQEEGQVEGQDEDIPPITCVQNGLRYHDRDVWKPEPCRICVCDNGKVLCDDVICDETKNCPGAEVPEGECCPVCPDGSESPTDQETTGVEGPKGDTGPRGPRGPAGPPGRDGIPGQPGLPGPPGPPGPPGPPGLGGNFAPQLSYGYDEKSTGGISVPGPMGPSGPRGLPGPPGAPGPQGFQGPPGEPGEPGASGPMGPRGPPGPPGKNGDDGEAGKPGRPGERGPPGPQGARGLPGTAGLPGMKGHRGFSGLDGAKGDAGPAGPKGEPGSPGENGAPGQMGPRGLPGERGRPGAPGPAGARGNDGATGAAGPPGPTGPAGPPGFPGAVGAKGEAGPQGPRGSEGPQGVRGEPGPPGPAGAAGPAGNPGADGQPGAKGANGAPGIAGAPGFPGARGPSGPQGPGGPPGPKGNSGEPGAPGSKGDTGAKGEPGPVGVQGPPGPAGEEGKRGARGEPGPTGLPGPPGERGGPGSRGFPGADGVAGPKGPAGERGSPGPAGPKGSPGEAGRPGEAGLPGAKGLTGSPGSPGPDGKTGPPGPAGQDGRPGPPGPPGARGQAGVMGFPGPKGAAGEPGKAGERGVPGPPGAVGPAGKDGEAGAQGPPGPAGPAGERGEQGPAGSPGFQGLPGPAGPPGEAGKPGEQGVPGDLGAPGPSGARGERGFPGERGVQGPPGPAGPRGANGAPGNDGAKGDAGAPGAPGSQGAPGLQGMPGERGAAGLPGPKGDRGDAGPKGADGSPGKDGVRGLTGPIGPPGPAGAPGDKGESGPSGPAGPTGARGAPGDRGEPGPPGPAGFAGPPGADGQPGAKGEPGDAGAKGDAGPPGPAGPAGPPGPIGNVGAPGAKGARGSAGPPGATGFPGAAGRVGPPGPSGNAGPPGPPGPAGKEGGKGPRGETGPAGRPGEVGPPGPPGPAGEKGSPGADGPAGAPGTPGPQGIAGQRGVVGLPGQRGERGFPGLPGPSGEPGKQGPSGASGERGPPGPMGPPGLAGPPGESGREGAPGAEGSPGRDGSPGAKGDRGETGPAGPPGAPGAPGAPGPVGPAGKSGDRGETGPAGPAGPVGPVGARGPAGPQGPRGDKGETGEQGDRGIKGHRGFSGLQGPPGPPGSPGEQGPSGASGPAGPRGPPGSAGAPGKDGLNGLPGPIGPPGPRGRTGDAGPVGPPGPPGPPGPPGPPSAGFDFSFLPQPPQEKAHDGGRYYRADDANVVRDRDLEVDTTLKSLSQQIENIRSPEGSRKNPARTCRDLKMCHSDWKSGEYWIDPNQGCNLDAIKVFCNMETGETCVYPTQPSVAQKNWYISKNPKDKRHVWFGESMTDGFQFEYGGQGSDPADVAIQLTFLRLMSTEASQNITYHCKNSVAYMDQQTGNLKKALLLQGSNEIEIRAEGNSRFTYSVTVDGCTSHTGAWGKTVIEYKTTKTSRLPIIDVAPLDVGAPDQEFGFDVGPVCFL
- Method: Inhibition of COL1A1 (unknown origin) expressed in human LX2 cells at 20 micromol/L incubated for 48 hrs by Bright-Glo luciferase assay relative to control
- Assay type: cell-based
- Particulars: dose 20.0 µmol/L
Measured inhibition accompanies every entry in the list below.
Readout Type: inhibition (%)

# Sample Smiles, Readout Type, Unit Abbrev, Reported
data = [
    ("COc1cc2c(cc1OC)-c1cc3ccc(OC)c(NCc4ccc(F)cc4)c3c[n+]1CC2", "inhibition", "%", 23.7),
    ("COc1cc2c(cc1OC)-c1c(Cc3cccc(C)c3)c3ccc(OC)c(OC)c3c[n+]1CC2", "inhibition", "%", 0),
    ("CCCCCOc1c(OC)ccc2cc3[n+](cc12)CCc1cc(OC)c(OC)cc1-3", "inhibition", "%", 36.7),
    ("COc1cc2c(cc1OC)-c1c(Cc3cccc(Br)c3)c3ccc(OC)c(OC)c3c[n+]1CC2", "inhibition", "%", 62.8),
    ("COc1cc2c(cc1OC)-c1c(Cc3cccc([N+](=O)[O-])c3)c3ccc(OC)c(OC)c3c[n+]1CC2", "inhibition", "%", 13),
    ("COc1cccc(COc2c(OC)ccc3cc4[n+](cc23)CCc2cc(OC)c(OC)cc2-4)c1", "inhibition", "%", 21.4),
    ("COc1ccc(COc2c(OC)ccc3cc4[n+](cc23)CCc2cc(OC)c(OC)cc2-4)cc1OC", "inhibition", "%", 12.6),
    ("COc1cc2c(cc1OC)-c1cc3ccc(OC)c(NCc4ccc(Br)cc4)c3c[n+]1CC2", "inhibition", "%", 18.4),
    ("COc1cc2c(cc1OC)-c1cc3ccc(OC)c(NC(=O)C4CCC4)c3c[n+]1CC2", "inhibition", "%", 18.9),
]

---

- Method: Acute toxicity in Kunming mouse assessed as lethal dose at po administration
- Assay type: organism-based
- Particulars: in vivo

# Sample Smiles, LD50
records = [
    ("COc1cc2c(cc1OC)-c1cc3ccc(OC)c(OCc4cccc(C)c4)c3c[n+]1CC2.[Br-]", "> 1000 mg/kg"),
]

---

- Method: Metabolic stability in Sprague-Dawley rat liver microsomes assessed as microsomal intrinsic clearance at 1 micromol/L measured upto 60 mins in presence of NADPH by LC-MS/MS analysis
- Format: ADME, Microsome
- Particulars: dose 1 µmol/L, read-out: CLH
Readout Type: microsomal CLint at 1 µM (µL/min/mg)

# Sample Smiles, Reported
records = [
    ("COc1cc2c(cc1OC)-c1cc3ccc(OC)c(OCc4cccc(C)c4)c3c[n+]1CC2.[Br-]", 188),
]

---

- System: COL1A1
- Method: Selectivity index, ratio of CC50 for cytotoxicity against human LX2 cells to IC50 for inhibition of COL1A1 (unknown origin) expressed in human LX2 cells
- Type: toxicity, cell-based
- Particulars: read-out: Ratio CC50/IC50
Could you please mark 1 (yes) for values of selectivity ratio below 4 and 0 (no) for values at or above it?

# Sample Smiles, Category
rows = [
    ("COc1cc2c(cc1OC)-c1c(Cc3ccccc3C)c3ccc(OC)c(OC)c3c[n+]1CC2", "1 (yes)"),
    ("COc1cc2c(cc1OC)-c1c(Cc3cccc(Br)c3)c3ccc(OC)c(OC)c3c[n+]1CC2", "1 (yes)"),
    ("COc1cc2c(cc1OC)-c1cc3ccc(OC)c(OCC4CCCC4)c3c[n+]1CC2", "1 (yes)"),
    ("COc1cc2c(cc1OC)-c1cc3ccc(OC)c(OCCc4ccc(C(F)(F)F)cc4)c3c[n+]1CC2", "0 (no)"),
    ("COc1cc2c(cc1OC)-c1cc3ccc(OC)c(OCc4ccc(C(C)C)cc4)c3c[n+]1CC2", "1 (yes)"),
    ("COc1cc2c(cc1OC)-c1cc3ccc(OC)c(NCc4ccc(C)cc4)c3c[n+]1CC2", "0 (no)"),
]

---

- Method: Cytotoxicity against human LX2 cells assessed as inhibition of cell growth
- Format: toxicity, cell-based, LX-2
Could you please mark satisfied for values of CC50 below 50 µM and not satisfied for values at or above it?

# Sample Smiles, Category
measured = [
    ("COc1cc2c(cc1OC)-c1c(Cc3cccc(Br)c3)c3ccc(OC)c(OC)c3c[n+]1CC2", "satisfied"),
    ("COc1cc2c(cc1OC)-c1cc3ccc(OC)c(NCc4ccc(C)cc4)c3c[n+]1CC2", "not satisfied"),
    ("COc1cc2c(cc1OC)-c1c(Cc3ccccc3C)c3ccc(OC)c(OC)c3c[n+]1CC2", "satisfied"),
    ("COc1cc2c(cc1OC)-c1cc3ccc(OC)c(OCCc4ccc(C(F)(F)F)cc4)c3c[n+]1CC2", "not satisfied"),
    ("COc1cc2c(cc1OC)-c1cc3ccc(OC)c(OCc4ccc(C(C)C)cc4)c3c[n+]1CC2", "satisfied"),
    ("COc1cc2c(cc1OC)-c1cc3ccc(OC)c(OCC4CCCC4)c3c[n+]1CC2", "not satisfied"),
    ("COc1cc2c(cc1OC)-c1cc3ccc(OC)c(OCc4cccc(C)c4)c3c[n+]1CC2.[Br-]", "not satisfied"),
]

---

Measured inhibition accompanies every entry in the list below.
- Target: Collagen alpha-1(I) chain (Homo sapiens)
- Method: Inhibition of COL1A1 (unknown origin) expressed in human LX2 cells at 20 micromol/L incubated for 48 hrs by Bright-Glo luciferase assay relative to control
- Assay type: cell-based
- Particulars: dose 20.0 µmol/L
Readout Type: inhibition (%)

# Sample Smiles, Target, Readout Type, Reported
rows = [
    ("O=C(O[C@@H]1Cc2c(O)cc(O)cc2O[C@@H]1c1cc(O)c(O)c(O)c1)c1cc(O)c(O)c(O)c1", "Collagen alpha-1(I) chain (Homo sapiens)", "inhibition", 27.6),
    ("CCCNc1c(OC)ccc2cc3[n+](cc12)CCc1cc(OC)c(OC)cc1-3", "Collagen alpha-1(I) chain (Homo sapiens)", "inhibition", 22.6),
    ("COc1cc2c(cc1OC)-c1cc3ccc(OC)c(OCc4ccc(C(F)(F)F)cc4)c3c[n+]1CC2", "Collagen alpha-1(I) chain (Homo sapiens)", "inhibition", 38.7),
    ("COc1cc2c(cc1OC)-c1cc3ccc(OC)c(OCc4cccc(C#N)c4)c3c[n+]1CC2", "Collagen alpha-1(I) chain (Homo sapiens)", "inhibition", 24.1),
    ("COc1cc2c(cc1OC)-c1cc3ccc(OC)c(NCc4ccc(Cl)cc4)c3c[n+]1CC2", "Collagen alpha-1(I) chain (Homo sapiens)", "inhibition", 93.6),
    ("COc1cc2c(cc1OC)-c1c(Cc3ccccc3C#N)c3ccc(OC)c(OC)c3c[n+]1CC2", "Collagen alpha-1(I) chain (Homo sapiens)", "inhibition", 24.9),
    ("COc1cc2c(cc1OC)-c1cc3ccc(OC)c(OCc4ccc(C#N)cc4)c3c[n+]1CC2", "Collagen alpha-1(I) chain (Homo sapiens)", "inhibition", 5.2),
    ("COc1cc2c(cc1OC)-c1cc3ccc(OC)c(NCc4ccc(C)cc4)c3c[n+]1CC2", "Collagen alpha-1(I) chain (Homo sapiens)", "inhibition", 79.2),
    ("COc1cc2c(cc1OC)-c1c(Cc3ccc(F)cc3)c3ccc(OC)c(OC)c3c[n+]1CC2", "Collagen alpha-1(I) chain (Homo sapiens)", "inhibition", 22.6),
]
